# Experimental Details: reducers of endogenous Her2 protein level, primary screen, SKBR3 breast tumor cells, AlphaScreen, ATP viability (AID 461);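 also: percent of carrier control wells set as 100% viability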
# Experimental Setup: 18-24 h, measured here: SKBR3 viability, ATP luminescence, at 10 µM
Attribute Measured: viability (%)
// note: answer is a bare numeric in %

Look over these answered cases.
O=c1c2c3c(sc2n2cnnc2n1CCc1ccccc1)CCCC3 ... 96.5
CCCCNc1cc(C)oc(=O)c1C(C)=O ... 94.5
Cc1ccc(Cn2c(SCCN3CCCCC3)nc3c2c(=O)[nH]c(=O)n3C)cc1 ... 94.5
N[C@@H](Cc1cc(I)c(Oc2ccc(O)c(I)c2)c(I)c1)C(=O)O ... 100
CCCC1(C(=O)OCC)NC(c2ccc(N(C)C)cc2)C2C(=O)N(c3ccc(F)cc3)C(=O)C21 (configuration not stated) ... 90
CSc1nc(C)c(C(=O)Nc2ccccc2)c(C)c1C#N ... 100

# ---- query compound ----
Data request: If you can, please state the reported viability value of CC(C)C(NC(=O)c1ccco1)C(=O)NCC(c1ccco1)N1CCCCC1 (configuration not stated) .
Data returned: 96.5

---

# Experimental Details: HUVEC growth inhibition – cell-based, human, primary screen (AID 575);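 also: 100% = median of untreated cell wells with 0.1% DMSO on each plate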
# Experimental Setup: HUVEC proliferation, CellTiter-Glo luminescence, 72 h; at 10 µM; stronger effect = lower value
Attribute Measured: viability (%)
State just the number; it will be interpreted in %.

O=C(NC1CCCCC1)c1ccc(S(=O)(=O)N2CCCCC2)cc1 ... 86
CS(=O)(=O)N(CC(=O)O)c1cccc(Cl)c1 ... 115
CCOc1cc(S(=O)(=O)Nc2ccccn2)ccc1F ... 108
O=c1cc(-c2ccccc2)[nH]c2nc3ccccc3n12 ... 35.5
CCCN1CCN(CCCNC(=O)Cn2nc(-c3ccc(Cl)cc3)ccc2=O)CC1 ... 104

Turning to the following molecule.
Data request: Look up viability for this molecule: Cc1cccc(Cn2c(=O)n(Cc3ccco3)c(=O)c3ccccc32)c1
Data returned: 100

---

# Experimental Details: viability gain of MRP-1-high H69AR cells under doxorubicin, pilot screen, MRP-1 activator project, CellTiter-Glo, duplicate (AID 807);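 also: compound pretreatment 18-22 h then 72 h combined with doxorubicin; 0% = doxorubicin alone and 100% = vehicle without doxorubicin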
# Experimental Setup: H69AR viability with doxorubicin, CellTiter-Glo luminescence; at 10 µM; stronger effect = higher value
Attribute Measured: viability increase (%)
Report only the number, with the unit % understood.

Here is how some compounds turned out for viability increase.
O=C(c1cc(-c2cccc(O)c2)on1)N1CCc2ccccc2C1 ... 1.48
O=C(c1ccsc1)N1CCN(C(=O)c2cccs2)CC1 ... 1.13
CSc1oc(-c2ccc(F)cc2)nc1S(=O)(=O)c1ccc(F)cc1 ... -1.96
CC(C)c1cc(=O)oc2c3c4c(cc12)CCCN4CCC3 ... -4.62
CCCc1nc(SCc2ccccn2)c2c(=O)n(C)c(=O)n(C)c2n1 ... 1.81
Nc1ccc(O)c(-c2nc3ccccc3s2)c1 ... -7.28
Cc1cc(C)nc(SCSc2nc(C)cc(C)n2)n1 ... -2.17
CCOc1ccc(N(CC(=O)O)S(=O)(=O)c2ccc(OC)c(OC)c2)cc1 ... -0.45
Cc1ccccc1-n1nc(-c2ccc(N)cc2)cc1N ... -2.52
CCCCn1c(C(C)NC(=O)c2cccs2)nc2ccccc21 (stereo unspecified) ... -3.37

Data request: Endpoint output: viability increase of COc1cccc(-c2cc(C(=O)Nn3cnnc3)c3ccccc3n2)c1 . Value?
Data returned: -3.9

Data request: Returns the measured viability increase for the input compound. Input: Cc1nnc(Sc2nc3c(c(=O)[nH]c(=O)n3C)n2CCc2ccccc2)s1
Data returned: -0.89

---

Each entry below carries its reported growth inhibition.
# Experimental Details: Restrictive medium S. cerevisiae growth inhibition, OD615, pilot screen of yeast lifespan reduction project, restrictive growth control (AID 706);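 also: modified DeaD lifespan yeast strain shifted to restrictive glucose medium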
# Experimental Setup: OD615, 48 h, at 10 µM, stronger effect = higher value
The answer is to be given in %; state only the numeric part.

O=C(Nc1cccc(F)c1)c1ccc(S(=O)(=O)N2CCOCC2)cc1 ... -7.46
Cc1cc(C(=O)N2CCN(c3ccccn3)CC2)no1 ... 0.795
O=C(c1cc(F)c(F)cc1Cl)N1CCCCC1 ... 1.34

Data request: growth inhibition lookup needed for COC(=O)c1c(C)oc2cc(Br)c(OCC(=O)C(C)(C)C)cc12 , thanks.
Data returned: -14.9

Data request: Param item = CC(=O)C(Sc1ccc2nnc(-c3ccc(F)cc3)n2n1)C(C)=O ; retrieve measured growth inhibition.
Data returned: 26.7

---

Form field: inhibition (one value per entry).
# Experimental Details: 384-well plate pilot, post-Golgi transport modulator project, inhibition of yeast transport mutant growth (AID 636)
# Experimental Setup: absorbance 615 nm, about 18 h, stronger effect = higher value
Please respond with the number in % and leave the unit unwritten.

Example entries and their recorded answers appear below.
CC(C)CNC(=O)C1CC(=O)OC12CCCCC2 (stereo not drawn) ... -8.11
Cc1cc(C)n2nc(S(=O)(=O)N(C)Cc3ccccc3)nc2n1 ... -7.16
Cn1c(SCC(=O)N2CCOCC2)nnc1-c1cnccn1 ... -4.34

Data request: Could you share which inhibition value was measured for COc1ccc(OCCCC(=O)Nc2ccc3c(c2)OCCO3)cc1 ?
Data returned: -6.76

Data request: # get_value(readout='inhibition', item= Cc1nc2sc(C#N)c(N)c2c2c1CCCC2 )
Data returned: -1.97

Data request: Which inhibition is reported for this molecule? COC(=O)c1[nH]c2cc(OC)ccc2c1NC(=O)CCN1CCCCC1
Data returned: -1.97

Data request: Quick one: inhibition for Cc1nc2c3cnn(-c4ccccc4)c3ncn2n1 ?
Data returned: -3.87

Data request: inhibition lookup needed for CCOC(=O)C1=C(c2ccccc2)NC(=O)NC1c1ccc(N(C)C)cc1 (stereo not drawn) , thanks.
Data returned: -2.08

Data request: Can you share its inhibition? I mean this molecule: O=C(NCCCNC(=O)c1ccccn1)c1ccccn1
Data returned: -5.89

Data request: Consider the molecule shown here: COc1ccc(C2c3c(-c4ccccc4O)n[nH]c3C(=O)N2CCc2ccc(OC)c(OC)c2)cc1 (stereo not drawn) What is its recorded inhibition?
Data returned: -2.89

Data request: For COc1cc(OC)c(C(=O)Nc2ncn[nH]2)cc1OC , what is its reported inhibition?
Data returned: 1.97

Data request: I have this molecule here, CN(C)/C=C1\N=C(c2ccc3c(c2)OCO3)OC1=O , and I need its recorded inhibition.
Data returned: -1.56

Data request: Can you look up the measured inhibition of CCc1cc(=O)oc2c(CN3CCN(C)CC3)c(O)c(Cl)cc12 for me?
Data returned: -2.5

---

# Experimental Details: reducers of endogenous Her2 protein level, primary screen, SKBR3 breast tumor cells, AlphaScreen, ATP viability (AID 461);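 also: percent of carrier control wells set as 100% viability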
# Experimental Setup: 18-24 h, measured here: SKBR3 viability, ATP luminescence, at 10 µM
Attribute Measured: viability (%)
Numeric answer only, unit % assumed.

COc1cccc(NC(=O)Cc2nnc(SCC(=O)c3ccccc3)n2C)c1 ... 92
Cc1nn(-c2ccc(F)cc2)c(C)c1NS(=O)(=O)c1ccc(Cl)cc1 ... 106
CCN(CC)CCN1C(=O)C(=O)/C(=C(/O)c2c(C)[nH]c(C(=O)OC)c2C)C1c1ccco1 (stereo unspecified) ... 88
O=c1ccc(S(=O)(=O)N2CCC(Cc3ccccc3)CC2)c[nH]1 ... 86
CCCCOCP(=O)(CCCC)COCCCC ... 92.5
CN(C)S(=O)(=O)c1ccc2c(c1)C(CC(=O)O)OC2=O (stereo unspecified) ... 94

Let's switch to this molecule now.
Data request: Entry CCS(=O)(=O)CCn1c([N+](=O)[O-])cnc1C has what viability?
Data returned: 89.5

---

Measured viability by item
# Experimental Details: growth suppression of beta-catenin knockout HCT116, pilot screen, human colon tumor cells (AID 823);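 also: 0% = wells killed by 20 µM Hyamine and 100% = untreated DMSO cell wells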
# Experimental Setup: CellTiter-Glo, 60 h, at 10 µM, stronger effect = lower value
Records with an inconclusive call do not appear.
Please state the figure in %; there is no need to write the unit.

CC(C)c1nc(SCC(=O)N2CCOCC2)c2c(=O)n(C)c(=O)n(C)c2n1 ... 102
Cc1cccc(N=C2NC(=O)/C(=C3/C(=O)N(C)c4ccccc43)S2)c1C ... 95.5
C=CCNc1ncnc2ccc(Br)cc12 ... 84.1
O=C(Oc1c(Cl)cc(Cl)c2cccnc12)N1CCOCC1 ... 99.7
CCn1cc(C(=O)NCCCN2CCC(C)CC2)c2cc(OC)c(OC)cc2c1=O ... 99.3

Data request: For the compound shown here, Cc1c(NC(=O)Oc2ccccc2)sc(=S)n1C , give the reported viability.
Data returned: 102

Data request: Quick one: viability for Cc1ccccc1NC(=O)c1ccc(S(=O)(=O)N(C)C)cc1 ?
Data returned: 102

Data request: What viability value was documented for this compound, CCN1CCN(C(=O)C(NS(=O)(=O)c2ccc3nc(C)sc3c2)C(C)C)CC1 (stereo not drawn) ?
Data returned: 99.4

Data request: For CC(C)N1C(=O)CCC1C(=O)N1CCC(Cc2ccccc2)CC1 (stereo not drawn) , what is its reported viability?
Data returned: 102

Data request: Would you mind telling me what viability value was observed for COc1cccc2c(=O)c(C/C=C(/C)Cl)c(C)[nH]c12 ?
Data returned: 97.5

Data request: Would you kindly share the measured viability for O=C(NCc1ccccc1)c1cc(S(=O)(=O)N2CCOCC2)ccc1F ?
Data returned: 94.7

Data request: Form field: reported viability of CC1=CC(C)(C)N(C(=O)CSc2nnc(-c3ccccc3)o2)c2ccc(C)cc21
Data returned: 62

Data request: viability lookup needed for Cc1cccc(OCCOCCSc2ncccn2)c1 , thanks.
Data returned: 97.9
